- experimental-parameters: 25 °C
Class key for solubility values: bin A: < 2 mM; bin B: ≥ 2 mM and < 100 mM; bin C: ≥ 100 mM

Exercise: Could you place `CCCCCCCCCCC(C(=O)O)C(=O)O` in its proper category? Many thanks.
Solution: bin A

Exercise: Could you place `O=Cc1cccc([N+](=O)[O-])c1` in its proper category? Many thanks.
Solution: bin B

Exercise: Could you place `CCN1C[C@]2(COC)[C@H](O)C[C@H](OC)[C@]34C1[C@H]([C@H](OC)[C@H]23)[C@]1(OC(C)=O)[C@H]2[C@@H](OC(=O)c3ccccc3)[C@](O)(C[C@H]24)[C@@H](OC)[C@@H]1O` in its proper category? Many thanks.
Solution: bin A

Exercise: Could you place `CCN(CC)C(=O)CCC(=O)O` in its proper category? Many thanks.
Solution: bin C

Exercise: Could you place `O=C1c2cccc(S(=O)(=O)O)c2C(=O)c2cccc(S(=O)(=O)O)c21` in its proper category? Many thanks.
Solution: bin C

Exercise: Could you place `O=C1C[C@@H]2OCC=C3CN4CC[C@]56c7ccccc7N1[C@H]5[C@H]2[C@H]3C[C@H]46` in its proper category? Many thanks.
Solution: bin A

Exercise: Could you place `O=C(O)c1cccc(Cl)c1` in its proper category? Many thanks.
Solution: bin B

Exercise: Could you place `CC(=O)Oc1ccc2c3c1O[C@H]1[C@@H](OC(C)=O)C=C[C@H]4[C@@H](C2)N(C)CC[C@@]341` in its proper category? Many thanks.
Solution: bin A

Exercise: Could you place `O=Cc1ccccc1[N+](=O)[O-]` in its proper category? Many thanks.
Solution: bin B

Exercise: Could you place `CC[C@H]1C[N@@]2CC[C@H]1C[C@H]2[C@H](O)c1ccnc2ccc(OC)cc12` in its proper category? Many thanks.
Solution: bin A

Exercise: Could you place `O=C1NS(=O)(=O)c2ccccc21` in its proper category? Many thanks.
Solution: bin B

Exercise: Could you place `O=C1c2cccc(S(=O)(=O)O)c2C(=O)c2c1cccc2S(=O)(=O)O` in its proper category? Many thanks.
Solution: bin C

Exercise: Could you place `NC(=O)c1ccccc1` in its proper category? Many thanks.
Solution: bin C

Exercise: Could you place `Cc1cc(O)c2c(O)c3c(O)cccc3cc2c1` in its proper category? Many thanks.
Solution: bin A

Exercise: Could you place `O=C(O)c1ccccc1Cl` in its proper category? Many thanks.
Solution: bin B

Exercise: Could you place `NC(N)=S` in its proper category? Many thanks.
Solution: bin C

Exercise: Could you place `C=CC=O` in its proper category? Many thanks.
Solution: bin C

Exercise: Could you place CN1C2CCC1CC(OC(=O)c1ccccc1)C2 (stereo not drawn) in its proper category? Many thanks.
Solution: bin B

* * *

- experimental-parameters: 23 °C
quantity: solubility
// return the numeric value with its unit appended

Exercise: Output measured solubility for this item: `Nc1ccc(N)cc1`
Solution: 342 mM

* * *

- experimental-parameters: 24 °C
quantity: solubility (mM)
Numeric answer only, unit mM assumed.

Exercise: Output measured solubility for this item: `Nc1cccc([N+](=O)[O-])c1`
Solution: 8.69
